- assayed.system: Recombinant M. tuberculosis MbtI (Mycobacterium tuberculosis, UniProt P9WFX1)
- Sequence (P9WFX1 whole entry): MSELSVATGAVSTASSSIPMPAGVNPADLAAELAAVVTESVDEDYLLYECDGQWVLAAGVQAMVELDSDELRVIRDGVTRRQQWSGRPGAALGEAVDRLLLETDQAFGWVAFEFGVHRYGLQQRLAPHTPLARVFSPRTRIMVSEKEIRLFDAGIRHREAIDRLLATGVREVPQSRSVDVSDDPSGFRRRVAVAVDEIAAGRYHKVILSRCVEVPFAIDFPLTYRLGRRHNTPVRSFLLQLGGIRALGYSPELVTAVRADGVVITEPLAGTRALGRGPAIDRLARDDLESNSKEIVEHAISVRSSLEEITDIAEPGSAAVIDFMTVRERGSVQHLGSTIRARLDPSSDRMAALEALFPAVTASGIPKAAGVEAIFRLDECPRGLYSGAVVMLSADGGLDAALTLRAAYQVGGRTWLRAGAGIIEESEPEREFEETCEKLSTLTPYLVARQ
- protocol.details: biochemical
- settings: pH 7.5, read-out: Residual activity at 100 µM (%)
// boundary case: remaining activity at 100 µM equal to 20% maps to rule not met; strictly smaller maps to rule met

[
  {
    "compound": "Cc1cc(C(F)(F)F)ccc1-c1ccc(C(=O)O)o1 [1e]",
    "label.class": "rule met"
  },
  {
    "compound": "O=C(O)c1ccc(-c2ccc([N+](=O)[O-])cc2C(F)(F)F)o1 [1p]",
    "label.class": "rule not met"
  },
  {
    "compound": "O=C(O)c1ccc(-c2ccc([N+](=O)[O-])cc2Br)o1 [1j]",
    "label.class": "rule not met"
  },
  {
    "compound": "O=C(O)c1ccc(-c2ccc(C(F)(F)F)cc2O)o1 [1d]",
    "label.class": "rule met"
  },
  {
    "compound": "Cc1cc([N+](=O)[O-])ccc1-c1ccc(C(=O)O)o1 [1m]",
    "label.class": "rule met"
  },
  {
    "compound": "O=C(O)c1ccc(-c2ccc([N+](=O)[O-])cc2O)o1 [1l]",
    "label.class": "rule met"
  },
  {
    "compound": "O=C(O)c1ccc(-c2ccc(C(F)(F)F)cc2Br)o1 [1c]",
    "label.class": "rule not met"
  },
  {
    "compound": "O=C(O)c1ccc(-c2ccc([N+](=O)[O-])cc2F)o1 [1k]",
    "label.class": "rule not met"
  },
  {
    "compound": "N#Cc1cc(C(F)(F)F)ccc1-c1ccc(C(=O)O)o1 [1g]",
    "label.class": "rule met"
  },
  {
    "compound": "Nc1cc([N+](=O)[O-])ccc1-c1ccc(C(=O)O)o1 [1n]",
    "label.class": "rule met"
  },
  {
    "compound": "Nc1cc(C(F)(F)F)ccc1-c1ccc(C(=O)O)o1 [1f]",
    "label.class": "rule met"
  },
  {
    "compound": "O=C(O)c1ccc(-c2ccc(C(F)(F)F)cc2F)o1 [1b]",
    "label.class": "rule met"
  }
]
